# System: COS7 cells
# ASSAY_REMARKS: Growth inhibition of transiently transfected Cos7 cells by CPT-11
# Assay type: cell-based, African green monkey
# TEST_PARAMETERS: Chlorocebus sabaeus, COS-7, read-out: IC50 (growth inhibition), cells expressing rCE
TEST_READOUT: IC50

Form field IC50, entry CCc1c2c(nc3ccc(OC(=O)N4CCC(N5CCCCC5)CC4)cc13)-c1cc3c(c(=O)n1C2)COC(=O)[C@]3(O)CC [CPT-11] : 12 to 20 µM

* * *

# Test system: SK-N-As cells
# ASSAY_REMARKS: Growth inhibition of adenovirus-transduced SK-N-As cells by CPT-11
# Type: cell-based
# TEST_PARAMETERS: Homo sapiens, read-out: IC50, SK-N-As, transduced cells
# Protocol: Construction of Adenovirus. Replication-deficient adenovirus expressing hCElm6 or rCE were constructed using standard protocols (Wierdl, et al. 2001. Cancer Res. 61:5078-5082). Multiplicity of infection (moi) was defined as the number of plaques produced in 1×10^6 293 cells in a total volume of 1 ml of media after incubation with virus for 1 hour. Growth Inhibition Assays.
TEST_READOUT: pIC50
The read-out pIC50 is expressed as -log10 of concentration in moles per litre.

Sample CCc1c2c(nc3ccc(OC(=O)N4CCC(N5CCCCC5)CC4)cc13)-c1cc3c(c(=O)n1C2)COC(=O)[C@]3(O)CC ; pIC50 observed: 8.70
